Data provenance: patent US20250221998A1

# Measured on: EGFR L858R/C797S Ba/F3 cells (Homo sapiens, UniProt P00533, C797S/L858R, cells depend on it)
# Sequence (P00533 whole entry C797S/L858R): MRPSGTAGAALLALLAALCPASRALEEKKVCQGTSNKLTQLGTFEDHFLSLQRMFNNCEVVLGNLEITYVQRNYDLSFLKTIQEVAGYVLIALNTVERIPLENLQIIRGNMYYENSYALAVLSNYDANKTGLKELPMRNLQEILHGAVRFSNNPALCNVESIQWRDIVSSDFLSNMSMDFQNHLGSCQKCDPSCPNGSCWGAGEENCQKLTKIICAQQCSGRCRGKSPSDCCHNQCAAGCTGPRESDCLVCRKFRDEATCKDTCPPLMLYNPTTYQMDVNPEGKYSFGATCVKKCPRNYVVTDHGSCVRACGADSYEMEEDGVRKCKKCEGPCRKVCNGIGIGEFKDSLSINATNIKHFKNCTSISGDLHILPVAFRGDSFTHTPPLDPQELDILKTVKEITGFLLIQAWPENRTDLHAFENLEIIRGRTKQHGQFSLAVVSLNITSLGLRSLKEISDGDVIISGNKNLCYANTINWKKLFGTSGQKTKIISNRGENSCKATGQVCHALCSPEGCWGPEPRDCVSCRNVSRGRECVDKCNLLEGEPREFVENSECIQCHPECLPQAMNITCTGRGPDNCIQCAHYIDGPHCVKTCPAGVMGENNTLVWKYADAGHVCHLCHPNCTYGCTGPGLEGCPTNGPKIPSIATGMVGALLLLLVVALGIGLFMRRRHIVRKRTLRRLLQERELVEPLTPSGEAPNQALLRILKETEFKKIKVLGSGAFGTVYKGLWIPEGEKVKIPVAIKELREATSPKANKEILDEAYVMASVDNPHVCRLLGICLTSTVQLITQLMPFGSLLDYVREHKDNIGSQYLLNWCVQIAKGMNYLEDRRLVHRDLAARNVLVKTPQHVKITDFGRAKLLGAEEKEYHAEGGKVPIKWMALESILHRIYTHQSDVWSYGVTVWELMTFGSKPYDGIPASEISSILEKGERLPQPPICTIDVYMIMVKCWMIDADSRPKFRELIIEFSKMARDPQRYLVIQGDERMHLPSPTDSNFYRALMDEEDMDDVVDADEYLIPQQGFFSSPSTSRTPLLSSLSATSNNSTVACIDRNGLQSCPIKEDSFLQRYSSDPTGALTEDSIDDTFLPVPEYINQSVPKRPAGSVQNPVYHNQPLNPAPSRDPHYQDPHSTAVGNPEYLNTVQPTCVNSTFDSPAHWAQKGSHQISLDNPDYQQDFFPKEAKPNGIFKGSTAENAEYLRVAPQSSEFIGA
# Assay name: Ba/F3 cell proliferation (Cell Titer Glo), EGFR L858R/C797S
# Type: cell-based, murine
# Cond: 72 hours exposure, read-out: L858R/C797S (μM), inhibitory activity against EGFR mutants
Property measured: GI50

Smiles representation: C=CC(=O)N1CCN(c2cc3cnc(Nc4ccc(OCCN(C)C)c(F)c4)nc3n(C)c2=O)c2cccc(C)c21
Property measured: GI50
Observed: ≤ 0.25 µM

Task: Entry `C=CC(=O)N1CCN(c2cc3cnc(Nc4cnn(CCO)c4)nc3n(C)c2=O)c2cccc(OC)c21` has what GI50?
Output: 0.25 to 0.5 µM
